molecular target: UniProt:G1SFD9
Sequence (G1SFD9 1-524): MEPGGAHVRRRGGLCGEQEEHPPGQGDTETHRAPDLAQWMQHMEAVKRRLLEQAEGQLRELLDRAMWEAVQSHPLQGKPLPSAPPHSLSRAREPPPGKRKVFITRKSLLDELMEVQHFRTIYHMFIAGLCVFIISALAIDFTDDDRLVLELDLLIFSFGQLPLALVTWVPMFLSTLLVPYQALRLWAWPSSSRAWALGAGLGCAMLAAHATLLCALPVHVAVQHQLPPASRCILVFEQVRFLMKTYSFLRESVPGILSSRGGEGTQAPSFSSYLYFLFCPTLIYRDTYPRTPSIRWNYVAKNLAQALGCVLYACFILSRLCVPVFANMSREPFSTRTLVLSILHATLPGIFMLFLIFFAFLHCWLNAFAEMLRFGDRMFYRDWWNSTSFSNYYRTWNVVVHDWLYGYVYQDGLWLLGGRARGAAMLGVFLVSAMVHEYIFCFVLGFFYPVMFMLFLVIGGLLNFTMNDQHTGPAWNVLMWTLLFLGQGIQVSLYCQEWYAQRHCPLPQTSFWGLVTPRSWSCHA
pIC50: −log10 of the molar value.
measured_quantity: pIC50

smiles_string: CSc1cc(C)nc(SC)c1NC(=O)N(Cc1ccc(N(C)C)cc1)Cc1cccc(-c2cc[nH]n2)c1
reading: 7.14
--
smiles_string: O=C(Nc1c(F)cc(F)cc1F)N(Cc1ccc(-n2cccc2)cc1)C1CCCCCC1
reading: 7.57
--
smiles_string: Cc1cc(C)c(NC(=O)N(Cc2ccc(-c3ccsc3)cc2)C2CCCCCC2)c(C)c1
reading: 7.72

* * *

molecular target: Sterol O-acyltransferase, Soat (Rattus norvegicus) (UniProt Q7TQM4+O70536); assay: Effective dose to reduce plasma total cholesterol level by 50% of the control value in cholesterol fed rats; type: functional
// reported ED50 per item

smiles_string: CSc1cc(C)nc(SC)c1NC(=O)N(Cc1ccc(F)cc1)Cc1cccc(-c2cc[nH]n2)c1
ED50: < 0.1 mg/kg
//
smiles_string: O=C(Nc1c(F)cc(F)cc1F)N(Cc1ccc(-c2cccs2)cc1)C1CCCCCC1
ED50: > 1 mg/kg
//
smiles_string: Cc1cc(C)c(NC(=O)N(Cc2ccc(-c3ccn(C)n3)cc2)C2CCCCCC2)c(C)c1
ED50: < 1 mg/kg
//
smiles_string: Cc1cc(C)c(NC(=O)N(Cc2cccc(-c3cc[nH]n3)c2)C2CCCCCC2)c(C)c1
ED50: 0.097 mg/kg
//
smiles_string: Cc1cc(C)c(NC(=O)N(Cc2ccccc2)Cc2cccc(-c3cc[nH]n3)c2)c(C)c1
ED50: > 1 mg/kg
//
smiles_string: CSc1cc(C)nc(SC)c1NC(=O)N(Cc1ccc(Oc2ccc(F)cc2)cc1)C1CCCCCC1
ED50: 0.034 mg/kg
//
smiles_string: Cc1cc(C)c(NC(=O)N(Cc2ccc(-n3ccnc3)cc2)C2CCCCCC2)c(C)c1
ED50: > 1 mg/kg
//
smiles_string: Cc1cc(C)c(NC(=O)N(Cc2ccc(-c3cccnc3)cc2)C2CCCCCC2)c(C)c1
ED50: 0.58 mg/kg
//
smiles_string: Cc1cc(C)c(NC(=O)N(Cc2ccc(N3CCN(C)CC3)cc2)C2CCCCCC2)c(C)c1
ED50: > 1 mg/kg
//
smiles_string: CSc1cc(C)nc(SC)c1NC(=O)N(Cc1ccccc1)Cc1ccc(-c2cc[nH]n2)cc1
ED50: < 0.32 mg/kg
//
smiles_string: O=C(Nc1c(F)cc(F)cc1F)N(Cc1ccccc1)Cc1cccc(-c2cc[nH]n2)c1
ED50: 0.096 mg/kg

* * *

molecular target: Sterol O-acyltransferase, Soat (Rattus norvegicus) (UniProt Q7TQM4+O70536); experiment: Effective dose to reduce plasma total cholesterol level by 50% of the control value in cholesterol fed rats; type: functional
# ED50 listing for each entry below

smiles_string: CSc1cc(C)nc(SC)c1NC(=O)N(Cc1ccccc1)Cc1cccc(-c2cc[nH]n2)c1
tested_system: Sterol O-acyltransferase, Soat (Rattus norvegicus) (UniProt Q7TQM4+O70536)
ED50: 0.046 mg/kg
--
smiles_string: CSc1cc(C)nc(SC)c1NC(=O)N(Cc1ccccc1)Cc1ccc(-c2ccnn2C)cc1
tested_system: Sterol O-acyltransferase, Soat (Rattus norvegicus) (UniProt Q7TQM4+O70536)
ED50: < 0.32 mg/kg
--
smiles_string: Cc1cc(C)c(NC(=O)N(Cc2ccc(-c3nnc(C)o3)cc2)C2CCCCCC2)c(C)c1
tested_system: Sterol O-acyltransferase, Soat (Rattus norvegicus) (UniProt Q7TQM4+O70536)
ED50: > 0.32 mg/kg
--
smiles_string: Cc1cc(C)c(NC(=O)N(Cc2cccc(-c3ccn(C)n3)c2)C2CCCCCC2)c(C)c1
tested_system: Sterol O-acyltransferase, Soat (Rattus norvegicus) (UniProt Q7TQM4+O70536)
ED50: < 1 mg/kg
--
smiles_string: Cc1cc(C)c(NC(=O)N(Cc2cccc(-c3cc[nH]n3)c2)C2CCCC2)c(C)c1
tested_system: Sterol O-acyltransferase, Soat (Rattus norvegicus) (UniProt Q7TQM4+O70536)
ED50: < 1 mg/kg
--
smiles_string: COc1ccc(CN(Cc2cccc(-c3cc[nH]n3)c2)C(=O)Nc2c(SC)cc(C)nc2SC)cc1
tested_system: Sterol O-acyltransferase, Soat (Rattus norvegicus) (UniProt Q7TQM4+O70536)
ED50: < 0.1 mg/kg
